- Method notes: Intrinsic clearance in human hepatocytes measured per 10^6 cells
- Assay type: ADME, cell-based, Hepatocyte
- Measurement context: read-out: CLH
Outcome label depends on hepatocyte CLint relative to 3 µL/min/1e6 cells: at/above gives t, below gives f.

Example results:
CC[C@@H](CS(=O)(=O)C1CCCC1)N1C(=O)[C@@H](CC(=O)O)O[C@H](c2cccc(Cl)c2)[C@H]1c1ccc(Cl)cc1	t
CC[C@@H](CN(c1ccccc1F)S(C)(=O)=O)N1C(=O)[C@@H](CC(=O)O)O[C@H](c2cccc(Cl)c2)[C@H]1c1ccc(Cl)cc1	t
CC[C@@H](CN(c1ccccc1)S(=O)(=O)C1CC1)N1C(=O)[C@@H](CC(=O)O)O[C@H](c2cccc(Cl)c2)[C@H]1c1ccc(Cl)cc1	t
CC(C)[C@@H](CS(=O)(=O)C(C)(C)C)N1C(=O)[C@@H](CC(=O)O)O[C@H](c2cccc(Cl)c2)[C@H]1c1ccc(Cl)cc1	f
CC[C@@H](CS(=O)(=O)c1ccccc1)N1C(=O)[C@@H](CC(=O)O)O[C@H](c2cccc(Cl)c2)[C@H]1c1ccc(Cl)cc1	t
C[C@@H](CS(=O)(=O)C(C)(C)C)N1C(=O)[C@@H](CC(=O)O)O[C@H](c2cccc(Cl)c2)[C@H]1c1ccc(Cl)cc1	f
CC[C@@H](CN(c1ccc(F)cc1F)S(=O)(=O)C1CC1)N1C(=O)[C@@H](CC(=O)O)O[C@H](c2cccc(Cl)c2)[C@H]1c1ccc(Cl)cc1	t
CC[C@@H](CS(=O)(=O)C(C)C)N1C(=O)[C@@H](CC(=O)O)O[C@H](c2cccc(Cl)c2)[C@H]1c1ccc(Cl)cc1	f
CC[C@@H](CS(=O)(=O)C1COC1)N1C(=O)[C@@H](CC(=O)O)O[C@H](c2cccc(Cl)c2)[C@H]1c1ccc(Cl)cc1	t
CC[C@@H](CN(c1ccccc1F)S(=O)(=O)C(C)C)N1C(=O)[C@@H](CC(=O)O)O[C@H](c2cccc(Cl)c2)[C@H]1c1ccc(Cl)cc1	t

Has CC[C@@H](CS(=O)(=O)CC(C)(C)C)N1C(=O)[C@@H](CC(=O)O)O[C@H](c2cccc(Cl)c2)[C@H]1c1ccc(Cl)cc1 a recorded hepatocyte CLint greater than or equal to 3 µL/min/1e6 cells?
t

Has CC[C@@H](CS(=O)(=O)C(C)(C)C)N1C(=O)[C@@H](CC(=O)O)O[C@H](c2cccc(Cl)c2)[C@H]1c1ccc(Cl)cc1 a recorded hepatocyte CLint greater than or equal to 3 µL/min/1e6 cells?
f
